Test: Toxicity, LD50 by the up-and-down method
Assay type: in vivo
Conditions: mouse, in vivo, iv
The compounds listed here are annotated with their LD50.
Write the number in mg/kg without appending the unit.

Identify measured LD50 corresponding to O=C(O)/C=C/C(=O)O.O=C1OC(Cc2ccccc2Br)CN1C(CCN1CCOCC1)c1ccccc1 (single isomer, unassigned) 48

Provide only the value of recorded LD50 for O=C(O)/C=C/C(=O)O.O=C1OC(Cc2ccccc2)CN1C(CCN1CCOCC1)c1ccccc1 (single isomer, unassigned) 76

Answer with the recorded LD50 of O=C(O)/C=C/C(=O)O.O=C1OCC(Cc2ccccc2)N1C(CCN1CCOCC1)c1ccccc1 (single isomer, unassigned) only. 76
